System: HCT116 cells
assayExplanation: HCT116 (MSI) 7 day viability, CellTiter Glo
Type: cell-based
experimentalParameters: 7 days, read-out: HCT116 (MSI) Viability 7 Day Abs AC50
valueKind: AC50

{"molecule": "C=CC(=O)N1CC(C)Oc2nn(-c3ccc(C(C)C)cc3)c3c2C(C1)N(C(=O)c1ccc(Br)c2[nH]cnc12)CC3 (stereo not shown) [Compound 53]", "AC50": "500 to 1000 nM"}
{"molecule": "C=CC(=O)N1CC(C)c2nn(-c3ccc(C(C)C)cc3O)c3c2C(C1)N(C(=O)c1ccc(Br)c2[nH]cnc12)CC3 (stereo not shown) [Compound 31]", "AC50": "250 to 500 nM"}
{"molecule": "C=CC(=O)N1CCc2nn(-c3ccc(C4CC4)c(F)c3O)c3c2C(C1)N(C(=O)c1cnc(Br)c(F)c1N)CC3 (stereo not shown) [Compound 229]", "AC50": "1 to 100 nM"}

[in] Please look at this molecule and report its AC50: C=CC(=O)N1CCc2nn(-c3ccc(C4CC4)cc3O)c3c2C(C1)N(C(=O)c1cnc(C(F)(F)F)c(OC)c1N)CC3 (stereo not shown) [Compound 216]
[out] 1 to 100 nM

====

Record form. Attribute: AC50. Fill in for each entry.
systemTested: Full length WRN protein (aa 2-1432) (Homo sapiens (Human), UniProt Q14191)
Sequence (Q14191 2-1432): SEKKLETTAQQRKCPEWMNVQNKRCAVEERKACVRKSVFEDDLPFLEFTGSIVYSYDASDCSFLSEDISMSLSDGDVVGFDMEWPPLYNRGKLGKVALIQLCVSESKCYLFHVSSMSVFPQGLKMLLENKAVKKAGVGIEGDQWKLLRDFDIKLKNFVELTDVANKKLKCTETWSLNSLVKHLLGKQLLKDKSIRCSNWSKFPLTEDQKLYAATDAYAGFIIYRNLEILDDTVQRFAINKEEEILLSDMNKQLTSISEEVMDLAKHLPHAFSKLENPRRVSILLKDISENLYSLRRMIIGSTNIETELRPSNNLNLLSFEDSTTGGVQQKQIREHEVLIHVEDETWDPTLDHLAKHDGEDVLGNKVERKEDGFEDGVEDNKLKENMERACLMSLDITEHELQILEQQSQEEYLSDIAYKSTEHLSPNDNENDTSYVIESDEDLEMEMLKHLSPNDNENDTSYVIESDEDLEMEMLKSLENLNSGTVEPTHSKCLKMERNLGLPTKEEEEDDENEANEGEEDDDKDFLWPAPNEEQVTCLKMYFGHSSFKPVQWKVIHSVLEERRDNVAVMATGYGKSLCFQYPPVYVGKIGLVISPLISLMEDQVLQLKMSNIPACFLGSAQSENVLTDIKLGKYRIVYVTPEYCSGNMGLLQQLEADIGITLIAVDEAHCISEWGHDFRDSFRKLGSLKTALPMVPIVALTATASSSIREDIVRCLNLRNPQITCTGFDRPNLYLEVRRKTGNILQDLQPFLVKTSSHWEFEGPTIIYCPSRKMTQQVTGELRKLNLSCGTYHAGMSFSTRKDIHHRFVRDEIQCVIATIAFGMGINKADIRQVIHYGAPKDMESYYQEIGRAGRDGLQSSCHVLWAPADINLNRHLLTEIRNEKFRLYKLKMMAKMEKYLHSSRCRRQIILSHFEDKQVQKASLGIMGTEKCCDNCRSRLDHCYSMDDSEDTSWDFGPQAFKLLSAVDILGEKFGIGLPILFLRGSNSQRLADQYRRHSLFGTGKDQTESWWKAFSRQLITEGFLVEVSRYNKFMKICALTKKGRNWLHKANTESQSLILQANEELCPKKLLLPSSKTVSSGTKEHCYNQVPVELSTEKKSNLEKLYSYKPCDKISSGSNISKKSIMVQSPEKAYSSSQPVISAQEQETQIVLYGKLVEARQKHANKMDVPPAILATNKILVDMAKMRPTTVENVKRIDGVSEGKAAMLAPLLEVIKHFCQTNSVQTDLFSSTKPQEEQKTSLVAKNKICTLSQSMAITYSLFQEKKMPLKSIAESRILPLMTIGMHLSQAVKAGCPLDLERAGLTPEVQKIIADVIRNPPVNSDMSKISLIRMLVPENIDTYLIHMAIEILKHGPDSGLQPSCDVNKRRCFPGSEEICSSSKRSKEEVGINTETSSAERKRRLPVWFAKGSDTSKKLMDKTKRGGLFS
assayExplanation: WRN ATPase ADP-Glo biochemical assay, Assay Format A (10 μM ATP)
experimentalParameters: 0.25 nM WRN, 100 nM C6.18 ssDNA, 30 min preincubation, read-out: ATPase ADPGlo AC50 (uM)- Assay Format A

Consider the reported AC50 for these compounds:
{"compound": "C=CC(=O)N1CCc2nn(-c3ccc(C4CCC4)cc3O)c3c2C(C1)N(C(=O)c1ccc(Br)c2nc(C(F)F)[nH]c12)CC3 (stereo not shown)", "valueKind": "AC50", "observed": "< 0.0015 µM"}
{"compound": "C=CC(=O)N1CCc2nn(-c3ccc(C4CC4)cc3)c3c2C(C1)N(C(=O)c1cnc(Cl)cc1N)CC3 (stereo not shown)", "valueKind": "AC50", "observed": "< 0.0015 µM"}
{"compound": "C=CC(=O)N1CCOc2nn(-c3ccc(C4CC4)cc3)c3c2C(C1)N(C(=O)c1ccc(Br)c2[nH]cnc12)CC3 (stereo not shown)", "valueKind": "AC50", "observed": "< 0.0015 µM"}

Quick batch: AC50 for everything below.
1. C=CC(=O)N1CCc2nn(-c3ccc(C4CC4)cc3O)c3c2C(C1)N(C(=O)c1nnc(C(F)(F)F)cc1N)CC3 (stereo not shown)
2. C=CC(=O)N1CC(C)c2nn(-c3ccc(C4CCC4)cc3O)c3c2C(C1)N(C(=O)c1cnc(C(F)(F)F)cc1N)CC3 (stereo not shown) [Compound 135]
3. C=CC(=O)N1CCOc2nn(-c3ccc(C(C)C)cc3)c3c2C(C1)N(C(=O)c1ccc(Br)c2[nH]cnc12)CC3 (stereo not shown)
4. C=CC(=O)N1CC(OCC2CCOCC2)c2nn(-c3ccc(C4CC4)cc3)c3c2C(C1)N(C(=O)c1cnc(C(F)(F)F)cc1N)CC3 (stereo not shown)
5. C=CC(=O)N1CCc2nn(-c3ccc(C(C)C)c(F)c3N)c3c2C(C1)N(C(=O)c1cnc(C(F)(F)F)c(O)c1)CC3 (stereo not shown)

[out]
< 0.0015 µM
< 0.0015 µM
0.0015 to 0.005 µM
< 0.0015 µM
0.0015 to 0.005 µM
